- tgt: full-length human PIKFYVE (GST-PIKFYVE) (Homo sapiens (Human), UniProt Q9Y2I7, L932S/Q1183K/Q995L/S1033A/S696N/T998S)
- Sequence (Q9Y2I7 whole entry S696N/L932S/Q995L/T998S/S1033A/Q1183K): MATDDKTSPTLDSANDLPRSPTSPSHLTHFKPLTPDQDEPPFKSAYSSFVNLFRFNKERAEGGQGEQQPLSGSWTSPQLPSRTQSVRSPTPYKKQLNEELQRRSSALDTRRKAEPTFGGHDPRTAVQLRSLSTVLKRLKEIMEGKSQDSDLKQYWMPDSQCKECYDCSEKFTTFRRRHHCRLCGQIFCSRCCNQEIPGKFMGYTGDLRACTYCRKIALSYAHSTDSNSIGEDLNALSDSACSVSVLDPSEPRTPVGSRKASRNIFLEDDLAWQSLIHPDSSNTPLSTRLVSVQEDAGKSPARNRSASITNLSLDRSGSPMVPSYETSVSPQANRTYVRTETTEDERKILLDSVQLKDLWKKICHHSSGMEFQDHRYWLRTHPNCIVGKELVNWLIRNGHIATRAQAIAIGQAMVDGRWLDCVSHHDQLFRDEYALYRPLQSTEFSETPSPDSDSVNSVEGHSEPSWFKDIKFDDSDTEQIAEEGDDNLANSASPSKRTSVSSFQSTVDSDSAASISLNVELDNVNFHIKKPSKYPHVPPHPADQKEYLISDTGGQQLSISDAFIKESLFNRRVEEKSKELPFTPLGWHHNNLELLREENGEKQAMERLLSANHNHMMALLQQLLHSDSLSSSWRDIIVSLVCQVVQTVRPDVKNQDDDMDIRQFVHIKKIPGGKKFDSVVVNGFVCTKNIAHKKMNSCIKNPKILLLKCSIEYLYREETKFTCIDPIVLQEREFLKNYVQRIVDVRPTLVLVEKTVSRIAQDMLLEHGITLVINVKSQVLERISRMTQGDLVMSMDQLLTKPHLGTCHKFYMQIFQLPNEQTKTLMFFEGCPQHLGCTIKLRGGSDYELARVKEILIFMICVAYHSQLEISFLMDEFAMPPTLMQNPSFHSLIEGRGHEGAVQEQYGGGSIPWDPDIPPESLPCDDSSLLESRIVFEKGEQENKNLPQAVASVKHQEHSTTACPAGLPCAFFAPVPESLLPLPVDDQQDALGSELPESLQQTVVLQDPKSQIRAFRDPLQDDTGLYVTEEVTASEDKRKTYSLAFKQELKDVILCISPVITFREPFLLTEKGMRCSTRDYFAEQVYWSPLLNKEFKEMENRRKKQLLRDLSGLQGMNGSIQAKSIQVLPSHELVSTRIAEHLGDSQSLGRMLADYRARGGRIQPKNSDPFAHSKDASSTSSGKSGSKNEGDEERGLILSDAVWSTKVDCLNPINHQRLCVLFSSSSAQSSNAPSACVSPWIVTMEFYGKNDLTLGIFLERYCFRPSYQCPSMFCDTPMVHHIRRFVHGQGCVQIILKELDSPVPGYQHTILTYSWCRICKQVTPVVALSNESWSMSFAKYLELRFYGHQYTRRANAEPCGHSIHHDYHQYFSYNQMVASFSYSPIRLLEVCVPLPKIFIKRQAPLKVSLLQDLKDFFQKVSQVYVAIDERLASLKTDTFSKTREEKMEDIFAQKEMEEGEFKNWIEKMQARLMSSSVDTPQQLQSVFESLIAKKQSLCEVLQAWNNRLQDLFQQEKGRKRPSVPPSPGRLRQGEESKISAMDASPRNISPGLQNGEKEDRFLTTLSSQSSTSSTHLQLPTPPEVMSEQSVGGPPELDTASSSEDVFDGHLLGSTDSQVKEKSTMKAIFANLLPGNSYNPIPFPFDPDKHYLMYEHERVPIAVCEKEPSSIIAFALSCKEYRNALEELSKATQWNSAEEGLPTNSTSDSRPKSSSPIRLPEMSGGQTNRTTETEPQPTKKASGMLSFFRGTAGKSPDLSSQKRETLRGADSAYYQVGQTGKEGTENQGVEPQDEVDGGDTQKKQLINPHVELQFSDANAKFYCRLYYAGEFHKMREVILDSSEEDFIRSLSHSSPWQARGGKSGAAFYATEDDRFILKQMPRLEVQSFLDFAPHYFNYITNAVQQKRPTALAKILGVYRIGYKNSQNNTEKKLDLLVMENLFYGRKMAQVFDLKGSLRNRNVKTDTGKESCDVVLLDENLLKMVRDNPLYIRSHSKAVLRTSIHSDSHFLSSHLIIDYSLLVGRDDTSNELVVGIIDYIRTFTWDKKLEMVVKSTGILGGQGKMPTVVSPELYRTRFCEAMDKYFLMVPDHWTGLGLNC
- test_details: PIKfyve biochemical assay (ADP-Glo Kinase assay, Carna Biosciences)
- experimental_context: ADP-Glo, full-length human PIKFYVE; read-out: hPIKfyve IC50
- Source text: PIKfyve Biochemical Assay. The biochemical PIKFyve inhibition assays were run by Carna Biosciences according to proprietary methodology based on the Promega ADP-Glo™ Kinase assay. A full-length human PIKFYVE [1-2098(end) amino acids and S696N, L932S, Q995L, T998S, S1033A and Q1183K of the protein having the sequence set forth in NCBI Reference Sequence No. NP_055855.2] was expressed as N-terminal GST-fusion protein (265 kDa) using baculovirus expression system. […]
pIC50: −log10 of the molar value.
The compounds listed here are annotated with their pIC50.

compound	assay_readout	result
CC(C)(C)OC(=O)N1CCC(c2nccc(-c3nc(N4CCOCC4)c4ncccc4n3)n2)CC1	pIC50	5.00 to 6.00
CC(C)(C)OC(=O)N1CCCC(c2ccn(-c3nc(N4CCOCC4)c4ncccc4n3)n2)C1 (centres unmarked)	pIC50	5.00 to 6.00
c1cncc(Oc2nc(N3CCOCC3)c3ncccc3n2)c1	pIC50	7.00 to 8.00
c1ccc(Oc2nc(N3CCOCC3)c3ncc(C4CCCO4)cc3n2)cc1 (centres unmarked)	pIC50	5.00 to 6.00

Next, consider the following compound.
Data request: Data request, read-out pIC50, for "CN1CCC(c2nccc(-c3nc(N4CCOCC4)c4ncccc4n3)n2)CC1"
Data returned: 5.00 to 6.00

====

- tgt: PIKfyve (PIKFYVE-NanoLuc fusion in HEK293 cells) (Homo sapiens (Human), UniProt Q9Y2I7)
- Sequence (Q9Y2I7 whole entry, the tested form may be a part): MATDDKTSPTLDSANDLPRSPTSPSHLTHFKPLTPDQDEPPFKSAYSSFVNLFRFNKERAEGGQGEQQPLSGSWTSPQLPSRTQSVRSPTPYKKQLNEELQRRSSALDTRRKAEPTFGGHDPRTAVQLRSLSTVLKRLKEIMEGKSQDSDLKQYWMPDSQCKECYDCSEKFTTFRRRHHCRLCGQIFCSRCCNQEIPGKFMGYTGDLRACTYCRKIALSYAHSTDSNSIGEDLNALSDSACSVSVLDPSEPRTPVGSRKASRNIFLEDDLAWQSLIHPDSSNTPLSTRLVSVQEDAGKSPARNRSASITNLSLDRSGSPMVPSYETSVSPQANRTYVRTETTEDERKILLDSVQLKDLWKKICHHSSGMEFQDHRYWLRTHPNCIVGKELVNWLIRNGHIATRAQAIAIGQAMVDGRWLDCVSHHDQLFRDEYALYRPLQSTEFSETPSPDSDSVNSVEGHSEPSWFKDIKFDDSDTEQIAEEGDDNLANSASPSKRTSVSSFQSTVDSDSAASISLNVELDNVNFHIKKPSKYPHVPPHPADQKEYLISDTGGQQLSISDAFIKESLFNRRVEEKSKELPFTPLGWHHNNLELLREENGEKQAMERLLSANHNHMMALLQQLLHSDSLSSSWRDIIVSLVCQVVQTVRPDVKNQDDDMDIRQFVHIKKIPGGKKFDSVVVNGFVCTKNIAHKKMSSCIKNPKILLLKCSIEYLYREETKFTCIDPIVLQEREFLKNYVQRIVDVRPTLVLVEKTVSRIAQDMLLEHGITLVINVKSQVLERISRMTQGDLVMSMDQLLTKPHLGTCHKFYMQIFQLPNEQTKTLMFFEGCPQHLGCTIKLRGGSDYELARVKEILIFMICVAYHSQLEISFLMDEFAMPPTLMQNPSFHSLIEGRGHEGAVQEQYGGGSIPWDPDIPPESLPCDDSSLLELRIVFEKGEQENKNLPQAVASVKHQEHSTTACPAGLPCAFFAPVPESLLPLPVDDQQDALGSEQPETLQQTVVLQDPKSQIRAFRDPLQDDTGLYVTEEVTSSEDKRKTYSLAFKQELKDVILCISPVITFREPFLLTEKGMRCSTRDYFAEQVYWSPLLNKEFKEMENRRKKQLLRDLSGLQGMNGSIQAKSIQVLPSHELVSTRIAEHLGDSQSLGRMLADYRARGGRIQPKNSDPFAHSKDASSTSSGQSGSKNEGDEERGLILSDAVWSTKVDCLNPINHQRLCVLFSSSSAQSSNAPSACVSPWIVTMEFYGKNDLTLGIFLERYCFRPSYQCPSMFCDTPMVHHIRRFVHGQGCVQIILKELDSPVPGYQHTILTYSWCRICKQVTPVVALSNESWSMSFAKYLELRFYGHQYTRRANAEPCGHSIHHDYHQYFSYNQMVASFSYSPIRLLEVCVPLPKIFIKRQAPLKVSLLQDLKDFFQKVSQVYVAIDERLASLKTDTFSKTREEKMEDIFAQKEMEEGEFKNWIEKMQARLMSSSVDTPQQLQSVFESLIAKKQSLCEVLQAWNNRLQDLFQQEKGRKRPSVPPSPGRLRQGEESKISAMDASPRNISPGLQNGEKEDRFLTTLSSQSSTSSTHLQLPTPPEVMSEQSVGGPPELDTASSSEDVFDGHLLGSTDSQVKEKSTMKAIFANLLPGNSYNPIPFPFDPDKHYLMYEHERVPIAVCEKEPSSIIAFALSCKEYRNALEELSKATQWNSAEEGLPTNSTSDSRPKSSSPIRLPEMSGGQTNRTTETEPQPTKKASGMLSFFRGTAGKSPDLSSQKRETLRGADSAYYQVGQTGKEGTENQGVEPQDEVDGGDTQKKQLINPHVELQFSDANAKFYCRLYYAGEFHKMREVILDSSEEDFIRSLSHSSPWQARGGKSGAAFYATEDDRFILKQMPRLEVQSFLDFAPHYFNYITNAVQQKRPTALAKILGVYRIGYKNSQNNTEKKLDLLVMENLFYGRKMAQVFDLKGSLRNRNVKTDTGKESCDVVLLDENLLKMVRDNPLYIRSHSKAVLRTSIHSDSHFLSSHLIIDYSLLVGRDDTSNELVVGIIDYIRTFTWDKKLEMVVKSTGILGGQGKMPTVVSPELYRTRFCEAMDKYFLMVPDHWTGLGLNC
- test_details: NanoBRET TE Intracellular Kinase Assay, K-8 (Promega) cell-based assay
- experimental_context: 2 hours, read-out: hPIKfyve BRET IC50
- Description: NanoBRET™ TE Intracellular Kinase Assay, K-8 (Promega) Cell-Based Assay. Intracellular inhibition of PIKfyve was assayed using Promega's NanoBRET™ TE Intracellular Kinase Assay, K-8 according to manufacturer's instructions. […] Kinase activity was detected by addition of a NanoBRET™ tracer reagent, which was a proprietary PIKfyve inhibitor appended to a fluorescent probe (BRET, bioluminescence resonance energy transfer). […] IC50 values were then calculated by fitting the data to the normalized BRET ratio.
pIC50: −log10 of the molar value.
The molecules listed here are annotated with their pIC50.

molecule	tgt	pIC50
Cc1cccc(/C=N/Nc2nc(N3CCOCC3)c3ncc(Cc4cccnc4)cc3n2)c1	PIKfyve (PIKFYVE-NanoLuc fusion in HEK293 cells) (Homo sapiens (Human), UniProt Q9Y2I7)	7.00 to 8.00
Cc1cccc(-c2cc(O)n(-c3nc(N4CCOCC4)c4ncc(Cc5cccnc5)cc4n3)n2)c1	PIKfyve (PIKFYVE-NanoLuc fusion in HEK293 cells) (Homo sapiens (Human), UniProt Q9Y2I7)	6.00 to 7.00
c1ccc(-c2ccn(-c3nc(N4CCOCC4)c4ncc(C5CCOCC5)cc4n3)n2)cc1	PIKfyve (PIKFYVE-NanoLuc fusion in HEK293 cells) (Homo sapiens (Human), UniProt Q9Y2I7)	6.00 to 7.00
c1ccc(-c2ccn(-c3nc(N4CCOCC4)c4ncccc4n3)n2)cc1	PIKfyve (PIKFYVE-NanoLuc fusion in HEK293 cells) (Homo sapiens (Human), UniProt Q9Y2I7)	6.00 to 7.00
c1ccc(-c2ccn(-c3nc(N4CCOCC4)c4ncc(C5CCCO5)cc4n3)n2)cc1 (centres unmarked)	PIKfyve (PIKFYVE-NanoLuc fusion in HEK293 cells) (Homo sapiens (Human), UniProt Q9Y2I7)	6.00 to 7.00

Data request: Data request, read-out pIC50, for c1ccc(-c2ccn(-c3nc(N4CCOCC4)c4ncc(C5CCCCO5)cc4n3)n2)cc1 (centres unmarked)
Data returned: 6.00 to 7.00

Data request: What about "Cc1cccc(/C=N/Nc2nc(N3CCOCC3)c3ncccc3n2)c1" ?
Data returned: 7.00 to 8.00

Data request: What about "C1=C(c2cnc3c(N4CCOCC4)nc(-n4ccc(-c5ccccc5)n4)nc3c2)CCOC1" ?
Data returned: 7.00 to 8.00

Data request: What about "Cc1cccc(-c2cc(O)n(-c3nc(N4CCOCC4)c4ncccc4n3)n2)c1" ?
Data returned: 6.00 to 7.00

Data request: What about "c1ccc(Nc2nc(N3CCOCC3)c3ncc(Cc4cccnc4)cc3n2)cc1" ?
Data returned: 6.00 to 7.00

Data request: What about "c1ccc(-c2nccc(-c3nc(N4CCOCC4)c4ncccc4n3)n2)cc1" ?
Data returned: 6.00 to 7.00

====

- Test system: PIKFYVE TDP-43 yeast strain
- test_details: Propidium iodide viability assay in PIKFYVE TDP-43 yeast strain
- Assay type: cell-based
- experimental_context: Saccharomyces cerevisiae; reduction in PI-positive cells, 24 hours, up to 15 μM
assay_readout: pIC50
Recall that pIC50 is obtained by taking minus log10 of the concentration measured in molar.

compound	tgt	pIC50
Cc1cccc(/C=N/Nc2nc(N3CCOCC3)c3nc(-c4ccncc4)n(C)c3n2)c1 [drawing 308]	PIKFYVE TDP-43 yeast strain	5.33

Data request: Item "Cc1cccc(/C=N/Nc2cc(N3CCOCC3)nc(OCCc3ccc(CN)cc3)n2)c1" with PIKFYVE TDP-43 yeast strain - pIC50?
Data returned: 5.95

Data request: What about "c1ccc(-c2ccnc(-c3cc(N4CCOCC4)nc(OCc4ccncc4)n3)n2)cc1" ?
Data returned: 5.84

Data request: What about "Oc1cc(C2CCOCC2)nn1-c1cc(N2CCOCC2)n2nc(-c3ccncc3)cc2n1" ?
Data returned: 5.04

Data request: What about "c1ccc(N2CCc3c(OCc4cccnc4)nc(N4CCOCC4)nc32)cc1" ?
Data returned: 5.57

Data request: What about "c1ccc(-c2cccc(-c3cc(N4CCOCC4)n4nc(-c5ccncc5)cc4n3)n2)cc1" ?
Data returned: 6.64

Data request: What about Cc1cccc(/C=N/Nc2nc(N3CCOCC3)c3ncccc3n2)c1 [drawing 311] ?
Data returned: 5.09

Data request: What about "Oc1cc(-c2ccccc2)nn1-c1cc(N2CCOCC2)n2nc(-c3ccncc3)nc2n1" ?
Data returned: 6.16

Data request: What about "Fc1cccc(-c2ccnn2-c2nc(N3CCOCC3)c3ncccc3n2)c1" ?
Data returned: 5.24

====

- tgt: full-length human PIKFYVE (GST-PIKFYVE) (Homo sapiens (Human), UniProt Q9Y2I7, L932S/Q1183K/Q995L/S1033A/S696N/T998S)
- test_details: PIKfyve biochemical assay (ADP-Glo Kinase assay, Carna Biosciences)
- experimental_context: ADP-Glo, full-length human PIKFYVE; read-out: hPIKfyve IC50
- Source text: PIKfyve Biochemical Assay. The biochemical PIKFyve inhibition assays were run by Carna Biosciences according to proprietary methodology based on the Promega ADP-Glo™ Kinase assay. A full-length human PIKFYVE [1-2098(end) amino acids and S696N, L932S, Q995L, T998S, S1033A and Q1183K of the protein having the sequence set forth in NCBI Reference Sequence No. NP_055855.2] was expressed as N-terminal GST-fusion protein (265 kDa) using baculovirus expression system. […]
pIC50: −log10 of the molar value.
The compounds listed here are annotated with their pIC50.

Examples from the recorded data:
compound	pIC50
CC(C)(C)OC(=O)N1CCN(c2nccc(-c3nc(N4CCOCC4)c4ncccc4n3)n2)CC1	5.00 to 6.00
Cc1cccc(CCNc2nc(N3CCOCC3)c3ncc(C(=O)c4cccnc4)cc3n2)c1	6.00 to 7.00
c1ccc(-c2nccc(-c3nc(N4CCOCC4)c4ncccc4n3)n2)cc1	> 8.00
Cc1cccc(/C=N/Nc2nc(N3CCOCC3)c3ncc(Cc4cccnc4)cc3n2)c1	7.00 to 8.00
c1cnc2c(N3CCOCC3)nc(-n3ccc(C4CCNCC4)n3)nc2c1	5.00 to 6.00

Data request: Data request, read-out pIC50, for "c1cnc2c(N3CCOCC3)nc(-c3ccnc(C4CCNCC4)n3)nc2c1"
Data returned: 5.00 to 6.00

Data request: What about "c1cnc2c(N3CCOCC3)nc(-n3ccc(-c4cncnc4)n3)nc2c1" ?
Data returned: 5.00 to 6.00

Data request: What about c1ccc(-c2ccn(-c3nc(N4CCOCC4)c4ncc(C5CCCOC5)cc4n3)n2)cc1 (centres unmarked) ?
Data returned: 7.00 to 8.00

====

- tgt: full-length human PIKFYVE (GST-PIKFYVE) (Homo sapiens (Human), UniProt Q9Y2I7, L932S/Q1183K/Q995L/S1033A/S696N/T998S)
- test_details: PIKfyve biochemical assay (ADP-Glo Kinase assay, Carna Biosciences)
- experimental_context: ADP-Glo, full-length human PIKFYVE; read-out: hPIKfyve IC50
pIC50: −log10 of the molar value.
assay_readout: pIC50

Examples from the recorded data:
compound	pIC50
O=C1N(c2nc(N3CCOCC3)c3ncccc3n2)CCN1C1CCCC1	5.00 to 6.00
c1cncc(Cc2nc(N3CCOCC3)c3ncccc3n2)c1	7.00 to 8.00
c1ccc(Nc2nc(N3CCOCC3)c3ncc(C4CCCO4)cc3n2)cc1 (centres unmarked)	6.00 to 7.00
C1=C(c2cnc3c(N4CCOCC4)nc(-n4ccc(-c5ccccc5)n4)nc3c2)CCOC1	7.00 to 8.00
Clc1nc(N2CCOCC2)c2ncc(Cc3cccnc3)cc2n1	5.00 to 6.00
O=C1N(c2ccccc2)CCN1c1nc(N2CCOCC2)c2ncccc2n1	5.00 to 6.00
c1ccc(Oc2nc(N3CCOCC3)c3ncc(Cc4cccnc4)cc3n2)cc1	5.00 to 6.00
CC(C)(C)OC(=O)N1CC=C(c2ccn(-c3nc(N4CCOCC4)c4ncccc4n3)n2)CC1	5.00 to 6.00

Data request: Data request, read-out pIC50, for "c1ccc(-c2ccn(-c3nc(N4CCOCC4)c4ncccc4n3)n2)cc1"
Data returned: 7.00 to 8.00

Data request: What about "c1ccc(Nc2nc(N3CCOCC3)c3ncc(-c4ccco4)cc3n2)cc1" ?
Data returned: 6.00 to 7.00

Data request: What about "c1ccc(-c2nccc(-c3nc(N4CCOCC4)c4ncc(Cc5cccnc5)cc4n3)n2)cc1" ?
Data returned: 6.00 to 7.00

Data request: What about "Cc1cccc(CCNc2nc(N3CCOCC3)c3ncc(Cc4cccnc4)cc3n2)c1" ?
Data returned: 6.00 to 7.00

Data request: What about CN1CCCC(c2ccn(-c3nc(N4CCOCC4)c4ncccc4n3)n2)C1 (centres unmarked) ?
Data returned: 5.00 to 6.00

Data request: What about c1cnc2c(N3CCOCC3)nc(-n3ccc(C4CCCNC4)n3)nc2c1 (centres unmarked) [compound 43] ?
Data returned: 5.00 to 6.00

Source: patent US20240208964A1
